measuredTarget: Shiga toxin 2 (Escherichia coli O157:H7) (UniProt P09385+P09386)
experimentalProtocol: E. coli 0.157:H7 Shiga Toxin SOP - stx2 screening assay
Assay type: functional
Set-up: scale not given: direction of the effect not stated beside the values
measurementContext: 30 µM
measuredQuantity: Percent Effect (%)

In [3]: df
Out[3]:
                                   compound  measuredquantity  valueunits  valueobserved
0  Cc1ccc(NC(=O)NC(C)C(=O)N2CCS(=O)(=O)CC2)cc1 (configuration not stated)    Percent Effect           %           12.8
1            CN(C)Cc1cnc2n1CCN(Cc1ccsc1)CC2    Percent Effect           %          -3.72
2  Cc1ccc(-c2nc(CNC3CCc4ncnn4C3)co2)c(C)c1 (configuration not stated)    Percent Effect           %            -22
3  Cc1[nH]c(=O)c(C#N)cc1C(=O)N1C[C@@H](CN2CCCC2)C[C@H](CO)C1    Percent Effect           %          -3.42
4  O=C(c1ccsc1)N1CCN2C[C@H](OCc3cccnc3)C[C@H]2C1    Percent Effect           %            1.7
5  Fc1cccc(N2CCCC3(C2)CN(c2ncccn2)CCO3)c1 (configuration not stated)    Percent Effect           %          -2.38
6  CN(CC(=O)N(C)C1CCCCC1)C1CCc2ccccc21 (configuration not stated)    Percent Effect           %           34.7

* * *

measuredTarget: Shiga toxin 2 (Escherichia coli O157:H7) (UniProt P09385+P09386)
experimentalProtocol: E. coli 0.157:H7 Shiga Toxin SOP - stx2 screening assay
Format: functional
Parameters: scale not given: direction of the effect not stated beside the values
measurementContext: 30 µM
measuredQuantity: Percent Effect (%)

>>> print(df.to_string())
                                   compound  valueobserved
0   Cc1nc(C)c(C(=O)NCCNC(=O)Cc2cccc(F)c2)s1           6.14
1              O=C(CN1CCCCCCC1=O)NCc1ccccn1          -35.3
2  CC(C)N(C)C(=O)C1=NOC2(CCN(C(=O)c3ccncc3)C2)C1 (centres undefined)          -7.21
3  CNC(=O)CN1CCCC12CCN(C(=O)c1ccc(F)cc1)CC2          -14.4

* * *

measuredTarget: Shiga toxin 2 (Escherichia coli O157:H7) (UniProt P09385+P09386)
experimentalProtocol: E. coli 0.157:H7 Shiga Toxin SOP - stx2 screening assay
Assay type: functional
Design: scale not given: direction of the effect not stated beside the values
measurementContext: 30 µM
measuredQuantity: Percent Effect (%)

In [3]: df
Out[3]:
                                   molecule  valueobserved
0  COc1ccc(C2=CCN(C(=O)CN(C)Cc3ccoc3)CC2)cc1          -67.5
1  COCCN1CCC(N(Cc2noc(C3CC3)n2)C(C)=O)C1 (stereo not drawn)           29.5
2           Cc1ncsc1C(=O)NCCn1nc2ccccn2c1=O             15

* * *

measuredTarget: Tyrosyl-tRNA synthetase, putative (Trypanosoma cruzi (strain CL Brener)) (UniProt Q4DSP6)
Sequence (Q4DSP6 as listed by the source): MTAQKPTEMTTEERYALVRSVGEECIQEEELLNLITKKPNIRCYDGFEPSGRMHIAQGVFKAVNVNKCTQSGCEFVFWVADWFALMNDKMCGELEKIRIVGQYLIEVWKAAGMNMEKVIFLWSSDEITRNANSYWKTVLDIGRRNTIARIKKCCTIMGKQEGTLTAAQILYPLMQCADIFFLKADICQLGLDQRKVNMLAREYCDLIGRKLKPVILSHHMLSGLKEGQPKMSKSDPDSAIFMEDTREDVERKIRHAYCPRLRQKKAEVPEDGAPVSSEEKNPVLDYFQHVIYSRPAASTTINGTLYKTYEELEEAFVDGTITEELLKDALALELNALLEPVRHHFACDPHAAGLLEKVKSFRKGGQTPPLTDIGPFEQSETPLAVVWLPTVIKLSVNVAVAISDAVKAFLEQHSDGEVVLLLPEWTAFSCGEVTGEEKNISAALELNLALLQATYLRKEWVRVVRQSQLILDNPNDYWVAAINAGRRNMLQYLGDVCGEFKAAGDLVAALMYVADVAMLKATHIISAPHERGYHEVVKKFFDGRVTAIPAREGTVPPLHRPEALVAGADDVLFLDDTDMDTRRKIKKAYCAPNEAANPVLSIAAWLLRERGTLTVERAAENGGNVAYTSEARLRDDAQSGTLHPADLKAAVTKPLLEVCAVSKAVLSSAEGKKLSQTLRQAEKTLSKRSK
experimentalProtocol: Trypanosoma cruzi tyrosyl tRNA synthetase (TcYRS) _High Tyrosine SOP; also: in the data most compounds retested in dose-response had high values
Assay type: functional
Set-up: scale not given: direction of the effect not stated beside the values
measurementContext: 30 µM
# reported Percent Effect; entries follow
measuredQuantity: Percent Effect

>>> print(df.to_string())
                                   compound  valueobserved
0  CCOCC(O)CN1CCN(C(=O)Cc2ccccc2Cl)CC1 (centres undefined)          0.49%
1  Cc1noc(C)c1CN1CCOC2(CCCN(c3nccs3)C2)C1 (centres undefined)         -7.29%
2  O=C(C1CCOC1)N1C[C@H]2CN(Cc3ccccn3)C[C@H]2C1 (some centres undefined)          6.49%
3  O=C1NC2(CCNCC2)CC1c1cccnc1 (centres undefined)          4.25%

* * *

measuredTarget: Shiga toxin 2 (Escherichia coli O157:H7) (UniProt P09385+P09386)
experimentalProtocol: E. coli 0.157:H7 Shiga Toxin SOP - stx2 screening assay
Assay type: functional
Parameters: scale not given: direction of the effect not stated beside the values
measurementContext: 30 µM
measuredQuantity: Percent Effect (%)

>>> df
                                   compound  valueobserved
0  Cc1csc(CCCNC(=O)[C@H]2CNC[C@@H](C(=O)N3CCCC3)C2)n1          -2.63
1       COc1cc(CCC(=O)NC2CC2)ccc1OCC(F)(F)F           30.2
2  CCC1CN(C(=O)c2ccccc2N2CCCC2)CCN1C(C)C (stereo not drawn)           12.2
3  Cc1nc(C)n(CC2CCCN2Cc2ccn(-c3ccccc3)n2)n1 (stereo not drawn)          -14.6
4  COCC(=O)NC(C)Cc1cccc(Br)c1 (stereo not drawn)          -16.5
5    COc1cccc2cc(CNCc3ccnc(N4CCOCC4)c3)oc12           26.8
6  Cc1cnc2c(S(=O)(=O)NCC3CCS(=O)(=O)C3)cccc2c1 (stereo not drawn)          -5.77
7      CCc1nnc2n1CCN(C(=O)c1cc(Br)c[nH]1)C2          -47.9

* * *

# key: entry, value: Percent Effect
measuredTarget: Shiga toxin 2 (Escherichia coli O157:H7) (UniProt P09385+P09386)
experimentalProtocol: E. coli 0.157:H7 Shiga Toxin SOP - stx2 screening assay
Format: functional
Set-up: scale not given: direction of the effect not stated beside the values
measurementContext: 30 µM
measuredQuantity: Percent Effect (%)

In [3]: df
Out[3]:
                                    molecule                            measuredtarget  valueobserved
 0  CC(C)(O)CN1CCN(C(=O)c2cc(Cl)cc3cccnc23)CC1  Shiga toxin 2 (Escherichia coli O157:H7) (UniProt P09385+P09386)            -18
 1  O=C(NCc1cccs1)[C@H]1CC[C@@H]2[C@@H](CCN2c2ncccn2)O1  Shiga toxin 2 (Escherichia coli O157:H7) (UniProt P09385+P09386)          -3.66
 2  CC(C)c1nn(C)c(N(C)C)c1CNCc1cccc(CN(C)C)c1  Shiga toxin 2 (Escherichia coli O157:H7) (UniProt P09385+P09386)           31.8
 3  Cc1ccc(C)c(NC(=O)c2n[nH]c(-n3cnnc3)n2)c1  Shiga toxin 2 (Escherichia coli O157:H7) (UniProt P09385+P09386)          -11.6
 4  O=C(NC[C@]12COC[C@H]1CN(Cc1nccs1)C2)c1ccccc1  Shiga toxin 2 (Escherichia coli O157:H7) (UniProt P09385+P09386)          -14.5
 5  CN(C)C(=O)c1cccc(NC(=O)N(CCO)Cc2ccsc2)c1  Shiga toxin 2 (Escherichia coli O157:H7) (UniProt P09385+P09386)          -18.5
 6  Cc1ccc(C)c(-n2ccc3nc(N4CCCC4)ncc3c2=O)c1  Shiga toxin 2 (Escherichia coli O157:H7) (UniProt P09385+P09386)          -36.3
 7  COCCNC(=O)[C@H]1CN(Cc2nccs2)C[C@H]2OCC[C@@H]12  Shiga toxin 2 (Escherichia coli O157:H7) (UniProt P09385+P09386)           1.98
 8       CCCc1nc(C)c(C(=O)NCCN2CCN(CC)CC2)s1  Shiga toxin 2 (Escherichia coli O157:H7) (UniProt P09385+P09386)          -15.4
 9   CN1CCN(CCCNC(=O)c2cc(Cl)c3c(c2)OCO3)CC1  Shiga toxin 2 (Escherichia coli O157:H7) (UniProt P09385+P09386)          -42.5
10  CC(C)c1nc2c(n1C)CCN(Cc1nc(-c3ccsc3)no1)C2  Shiga toxin 2 (Escherichia coli O157:H7) (UniProt P09385+P09386)          -3.44
11  OC(COc1ccccc1)CN1CCc2c(ncn2C2CC2)C1 (stereo not drawn)  Shiga toxin 2 (Escherichia coli O157:H7) (UniProt P09385+P09386)          -25.6
12  COc1ccc(NC(=O)CCc2c(C)nc3cc(O)nn3c2C)cn1  Shiga toxin 2 (Escherichia coli O157:H7) (UniProt P09385+P09386)          -81.2
13     COc1cc(/C=C/c2ncc(C(=O)O)s2)cc(Cl)c1O  Shiga toxin 2 (Escherichia coli O157:H7) (UniProt P09385+P09386)          -52.2
14  CCOCCN1CCCC(c2cc(C(N)=O)[nH]n2)C1 (stereo not drawn)  Shiga toxin 2 (Escherichia coli O157:H7) (UniProt P09385+P09386)          -7.08
15  CCn1cc(CN(C)S(=O)(=O)c2ccc(NC(C)=O)cc2)cn1  Shiga toxin 2 (Escherichia coli O157:H7) (UniProt P09385+P09386)          -65.2
16  CN(C)CC(=O)N1CCC2(CC(=O)N(c3cccc(C#N)c3)C2)C1 (stereo not drawn)  Shiga toxin 2 (Escherichia coli O157:H7) (UniProt P09385+P09386)           1.05
17    CCn1ncc(Br)c1CN(C)S(=O)(=O)c1ccc(C)cc1  Shiga toxin 2 (Escherichia coli O157:H7) (UniProt P09385+P09386)          -7.09
